Listed here: items and their measured AC50.
# Target: Cytochrome P450 2C19 (Homo sapiens, UniProt P33261)
# Sequence (P33261 whole entry): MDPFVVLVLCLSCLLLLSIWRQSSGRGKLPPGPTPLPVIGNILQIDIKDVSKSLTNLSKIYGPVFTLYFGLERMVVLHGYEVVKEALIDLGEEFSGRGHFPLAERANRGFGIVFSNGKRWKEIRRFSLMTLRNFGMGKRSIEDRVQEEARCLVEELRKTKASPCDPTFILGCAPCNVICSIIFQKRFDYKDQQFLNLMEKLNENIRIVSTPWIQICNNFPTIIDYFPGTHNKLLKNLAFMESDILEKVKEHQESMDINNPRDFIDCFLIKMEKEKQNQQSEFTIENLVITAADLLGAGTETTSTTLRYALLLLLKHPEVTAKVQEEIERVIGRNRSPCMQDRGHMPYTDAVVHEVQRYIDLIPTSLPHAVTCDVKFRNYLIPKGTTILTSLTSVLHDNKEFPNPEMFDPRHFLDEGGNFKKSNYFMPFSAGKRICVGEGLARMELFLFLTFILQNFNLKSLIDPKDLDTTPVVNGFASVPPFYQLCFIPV
# Assay Remarks: Cytochrome panel assay with activity outcomes. Panel member name: p450-cyp2c19 Compounds with AC50 equal or less than 10 uM are considered active
# Format: functional
# Particulars: read-out: AC50

# example entries with known answers
INSERT INTO measurements (molecule, measurement_kind, assay_result) VALUES
  ('COc1cccc(C2C(C(=O)c3cc4ccccc4o3)=C(O)C(=O)N2c2cc(C)on2)c1OC (stereo unspecified)', 'AC50', '15.8 µM (inconclusive)'),
  ('CN=C(S)Nc1ccc2nc(C)c(C)nc2c1', 'AC50', '39.8 µM (inconclusive)'),
  ('COc1ccccc1NC(=O)N1CCCC1C(=O)NCc1ccc2c(c1)OCO2 (stereo unspecified)', 'AC50', '28.2 µM (inconclusive)'),
  ('COc1ccc2c(c1)CCCC21NC(=O)N(CC(N)=O)C1=O (stereo unspecified)', 'AC50', '39.8 µM (inconclusive)'),
  ('CCCOc1ccc(/C=C/C(=O)Nc2ccc([N+](=O)[O-])cc2C)cc1', 'AC50', '0.631 µM (inconclusive)');

Could you now look at the following molecule, please?
// sample `COc1ccc(-n2c(=O)cnc3cnc(Oc4ccccc4)nc32)cc1` , its AC50 was 39.8 µM (inconclusive)

====

Listed here: items and their measured AC50.
# Target: DNA repair and recombination protein RAD54-like (Homo sapiens)
# Sequence (Q92698 whole entry): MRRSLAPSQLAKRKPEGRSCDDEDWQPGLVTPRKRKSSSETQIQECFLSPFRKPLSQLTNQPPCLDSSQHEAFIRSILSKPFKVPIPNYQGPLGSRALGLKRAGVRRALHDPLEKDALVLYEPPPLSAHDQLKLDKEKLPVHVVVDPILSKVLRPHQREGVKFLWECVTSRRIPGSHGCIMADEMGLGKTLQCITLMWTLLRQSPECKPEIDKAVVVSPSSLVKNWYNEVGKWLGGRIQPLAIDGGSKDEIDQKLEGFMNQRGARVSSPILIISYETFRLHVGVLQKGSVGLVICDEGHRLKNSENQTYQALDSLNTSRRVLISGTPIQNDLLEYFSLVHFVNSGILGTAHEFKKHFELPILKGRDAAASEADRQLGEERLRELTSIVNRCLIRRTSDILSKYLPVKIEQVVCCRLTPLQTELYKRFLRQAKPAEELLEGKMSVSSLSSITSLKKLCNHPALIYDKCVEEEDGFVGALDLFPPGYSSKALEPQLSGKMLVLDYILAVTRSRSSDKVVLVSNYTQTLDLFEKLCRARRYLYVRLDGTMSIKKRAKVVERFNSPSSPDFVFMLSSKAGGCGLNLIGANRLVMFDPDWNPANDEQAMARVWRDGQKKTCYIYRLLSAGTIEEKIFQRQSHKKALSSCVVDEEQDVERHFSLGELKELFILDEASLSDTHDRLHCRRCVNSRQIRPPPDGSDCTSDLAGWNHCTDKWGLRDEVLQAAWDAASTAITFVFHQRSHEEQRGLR
# Assay Remarks: RAD54 Holliday junction migration blockers – biochemical, fluorescence, cherry-picked samples, dose series, confirmation (AID 651657)
# Type: functional
Calls of active or inactive are those of the source.

# example entries with known answers
INSERT INTO assay_data (record_smiles, assay_result) VALUES
  ('CCN(CC)CCNC(=O)c1cc2c(-c3ccc(Cl)cc3)nn(C)c2s1', '6.7 µM (active)'),
  ('COc1ccc2c(c1)c1ncn(CCN3CCCC3)c(=O)c1n2C', '23.3 µM (active)'),
  ('CN1CCN(c2nc(-c3cccc([N+](=O)[O-])c3)nc3ccccc23)CC1', '7.36 µM (active)');

// sample `NCc1csc(Nc2nncc3ccccc23)n1` , its AC50 was 23.7 µM (active)

// sample `COc1cccc2sc3cc(NCCCN4CCOCC4)ccc3c(=O)c12` , its AC50 was 10.6 µM (active)
